All values here come from the supplement of paper PMC5499739.

- System: RBM10 RRM1-ZnF-RRM2 (GST-tagged construct);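 further: 20 pmol protein with 1.5 nmol RNA pool for 30 min at 4°C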
- measurement_description: RNAcompete 7-mer binding Z-score; higher = stronger binding preference
The full ranking holds about 16,000 sequences; the median of “Z-score” is about -0.37, and the highest 2% start at about 3.1. This is one part of a sample in which the highest values are shown more often than they occur.
reported_property: RNAcompete 7-mer binding Z-score

> print(dat)
    chain.sequence                 reported.property  result.value
 1         UCAACGC  RNAcompete 7-mer binding Z-score        -0.584
 2         CGAAGGG  RNAcompete 7-mer binding Z-score          2.68
 3         UGAAGGU  RNAcompete 7-mer binding Z-score          2.14
 4         GCGGUGG  RNAcompete 7-mer binding Z-score          3.01
 5         GGGGUGC  RNAcompete 7-mer binding Z-score          2.58
 6         GAUCGCU  RNAcompete 7-mer binding Z-score        -0.697
 7         GUCGAGG  RNAcompete 7-mer binding Z-score           1.9
 8         GGGUACA  RNAcompete 7-mer binding Z-score          3.39
 9         CGGUGGA  RNAcompete 7-mer binding Z-score          2.27
10         UUAGCGC  RNAcompete 7-mer binding Z-score        -0.617
11         GAUCCAG  RNAcompete 7-mer binding Z-score        0.0641
12         CCGGGGG  RNAcompete 7-mer binding Z-score           1.4
13         UUGGGUG  RNAcompete 7-mer binding Z-score          3.43
14         CGAACGC  RNAcompete 7-mer binding Z-score        -0.256
15         AAAAGGA  RNAcompete 7-mer binding Z-score          3.25
16         AGUCCAA  RNAcompete 7-mer binding Z-score        -0.464
17         GAGGGAC  RNAcompete 7-mer binding Z-score          2.02
18         GCGUAGG  RNAcompete 7-mer binding Z-score          2.21
19         AGAAGAG  RNAcompete 7-mer binding Z-score          1.61
20         ACGGGAU  RNAcompete 7-mer binding Z-score          1.88
21         GAUACUG  RNAcompete 7-mer binding Z-score        -0.118
22         CCAGGGA  RNAcompete 7-mer binding Z-score          1.51
23         GGGUAGU  RNAcompete 7-mer binding Z-score          3.17
24         GGGUGGG  RNAcompete 7-mer binding Z-score          4.11
25         UAAUACA  RNAcompete 7-mer binding Z-score        -0.391
26         UCAUACA  RNAcompete 7-mer binding Z-score        -0.464
27         ACGUGGG  RNAcompete 7-mer binding Z-score          2.48
28         GUAAGGG  RNAcompete 7-mer binding Z-score          3.65
29         AAAAAAA  RNAcompete 7-mer binding Z-score         -0.49
30         AAGGGCG  RNAcompete 7-mer binding Z-score          3.12
31         GCGGGUU  RNAcompete 7-mer binding Z-score          2.54
32         GCAUUUA  RNAcompete 7-mer binding Z-score        -0.661
33         UAAAGGG  RNAcompete 7-mer binding Z-score          2.65
34         UUGGUGA  RNAcompete 7-mer binding Z-score          1.39
35         AAGUCUU  RNAcompete 7-mer binding Z-score        -0.697
36         UAGGGAU  RNAcompete 7-mer binding Z-score          2.48
37         AGGGGAA  RNAcompete 7-mer binding Z-score          3.56
38         ACAGGGC  RNAcompete 7-mer binding Z-score          2.36
39         UCGGCCG  RNAcompete 7-mer binding Z-score        -0.795
40         AGGCGUA  RNAcompete 7-mer binding Z-score         0.716
41         GCAGGGC  RNAcompete 7-mer binding Z-score          1.51
42         GGGGUGG  RNAcompete 7-mer binding Z-score          4.09
43         ACAGGGG  RNAcompete 7-mer binding Z-score          3.19
44         UAUCAAU  RNAcompete 7-mer binding Z-score         -0.46
45         GUUAACU  RNAcompete 7-mer binding Z-score        -0.398
46         UCAGGGG  RNAcompete 7-mer binding Z-score          1.46
47         ACGUUUC  RNAcompete 7-mer binding Z-score        -0.912
48         AAGUUGC  RNAcompete 7-mer binding Z-score        -0.293
49         GCGGGGG  RNAcompete 7-mer binding Z-score          3.51
50         UUGGAAU  RNAcompete 7-mer binding Z-score          0.57
51         UCGGGUG  RNAcompete 7-mer binding Z-score          1.96
52         CCAGGGG  RNAcompete 7-mer binding Z-score          1.43
53         AGAAGGG  RNAcompete 7-mer binding Z-score          4.09
54         CGGGGUG  RNAcompete 7-mer binding Z-score          3.36
55         ACAGGGA  RNAcompete 7-mer binding Z-score          3.47
56         UGCGCUU  RNAcompete 7-mer binding Z-score        -0.744
57         CUGUGGG  RNAcompete 7-mer binding Z-score          1.63
58         UCUUUUG  RNAcompete 7-mer binding Z-score        -0.632
59         UGCGGUC  RNAcompete 7-mer binding Z-score      -0.00512
60         CGGUGGU  RNAcompete 7-mer binding Z-score          1.62
61         UGGGGUG  RNAcompete 7-mer binding Z-score          4.14
62         CGGGGAA  RNAcompete 7-mer binding Z-score          2.76
63         UACACCC  RNAcompete 7-mer binding Z-score         -0.77
64         GCGGGGC  RNAcompete 7-mer binding Z-score           2.5
65         AGCAUUU  RNAcompete 7-mer binding Z-score        -0.726
66         AAGGGAU  RNAcompete 7-mer binding Z-score          3.44
67         AGGCCUC  RNAcompete 7-mer binding Z-score        -0.828
68         UUAAGGA  RNAcompete 7-mer binding Z-score         0.982
69         AGGUAGG  RNAcompete 7-mer binding Z-score          3.72
70         AGAAGGU  RNAcompete 7-mer binding Z-score          3.67
71         UCGGGGA  RNAcompete 7-mer binding Z-score           1.7
72         UCAGCUU  RNAcompete 7-mer binding Z-score        -0.905
73         UUCCGGG  RNAcompete 7-mer binding Z-score         0.341
74         GAUCGGA  RNAcompete 7-mer binding Z-score         0.785
75         GCUAAUA  RNAcompete 7-mer binding Z-score        -0.282
76         GGGUGGC  RNAcompete 7-mer binding Z-score          2.45
77         UUGGGUU  RNAcompete 7-mer binding Z-score          2.05
78         AAGGGAG  RNAcompete 7-mer binding Z-score          4.04
79         GCAGGGU  RNAcompete 7-mer binding Z-score          3.35

###

- Test system: RBM10 RRM1-ZnF-RRM2 (GST-tagged construct);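 further: 20 pmol protein with 1.5 nmol RNA pool for 30 min at 4°C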
- measurement_description: RNAcompete 7-mer binding Z-score; higher = stronger binding preference
Over roughly 16,000 sequences, “Z-score” has its median near -0.37; the highest 2% begin near 3.1. For the sample, the highest values were picked, then their nearest neighbours and some sequences at random.
Classification field: enter yes (1) for RNAcompete 7-mer binding Z-score values not below 2, no (0) for values below it.

> print(dat)
    chain.sequence  discrete.label
 1         ACCAGGC          no (0)
 2         CCAUUGG          no (0)
 3         GAGGGGG         yes (1)
 4         AGAGCGG          no (0)
 5         CCGGGGU          no (0)
 6         AAGGGUU         yes (1)
 7         UGAGGAG          no (0)
 8         UGAGGGG         yes (1)
 9         AUUACAC          no (0)
10         CCCUCUU          no (0)
11         AUAGGCG          no (0)
12         ACGGGUU         yes (1)
13         ACGGCGG          no (0)
14         GGGAUGU         yes (1)
15         GAGCGGG         yes (1)
16         UAGGGUC         yes (1)
17         GAUAAGG         yes (1)
18         GGGAUAG         yes (1)
19         CGAGCGU          no (0)
20         CGAGGUU          no (0)
21         GAGGGUA         yes (1)
22         GGAUAGC         yes (1)
23         CGGGGGA         yes (1)
24         CAGGGUC          no (0)
25         UGGUGUG         yes (1)
26         CAGGGUG         yes (1)
27         CGAGGGU         yes (1)
28         GUAGGGA         yes (1)
29         GUAGGGC         yes (1)
30         GAGCGAG         yes (1)
31         AGGGUUU         yes (1)
32         UGGGUUA         yes (1)
33         GAGGGGA         yes (1)
34         UUAGGGU         yes (1)
35         GUCUAUA          no (0)
36         GGGGUUC          no (0)
37         UCUCGGA          no (0)
38         GAGCGGC          no (0)
39         GUCGCGU          no (0)
40         CCACGAA          no (0)
41         CUCAACA          no (0)
42         UGAGGGU         yes (1)
43         ACGGGGC         yes (1)
44         UUCCAGA          no (0)
45         GUAAAGU          no (0)
46         AGAGGGU         yes (1)
47         UGAGGCU          no (0)
48         CUUUACG          no (0)
49         UGAGCGG         yes (1)
50         UAGCGAG          no (0)
51         GUAAAAG          no (0)
52         GGAGGGU         yes (1)
53         GAGCGGU          no (0)
54         GUAAAGG         yes (1)
55         UGGCACA          no (0)
56         AUAUAAU          no (0)
57         AAGGGGC         yes (1)
58         GAGGGAU         yes (1)
59         UAGGGUG         yes (1)
60         UUUGCCG          no (0)
61         CUGAUAA          no (0)
62         GGAGGAU         yes (1)
63         AGGCCCG          no (0)
64         UUGUCAA          no (0)
65         AUAGGGG         yes (1)
66         CAGGGAU         yes (1)
67         GAUAAGU          no (0)
68         AGGGGUU         yes (1)
69         UUAGGGG         yes (1)
70         GGGUGUA         yes (1)
71         GAGCGGA         yes (1)
72         UGACGCA          no (0)
